Source of measurements: ChEMBL document CHEMBL1131564

Record form. Attribute: pIC50. Fill in for each entry.
- SYSTEM_UNDER_TEST: Sodium-dependent serotonin transporter (Rattus norvegicus, UniProt P31652)
- Sequence (P31652 whole entry): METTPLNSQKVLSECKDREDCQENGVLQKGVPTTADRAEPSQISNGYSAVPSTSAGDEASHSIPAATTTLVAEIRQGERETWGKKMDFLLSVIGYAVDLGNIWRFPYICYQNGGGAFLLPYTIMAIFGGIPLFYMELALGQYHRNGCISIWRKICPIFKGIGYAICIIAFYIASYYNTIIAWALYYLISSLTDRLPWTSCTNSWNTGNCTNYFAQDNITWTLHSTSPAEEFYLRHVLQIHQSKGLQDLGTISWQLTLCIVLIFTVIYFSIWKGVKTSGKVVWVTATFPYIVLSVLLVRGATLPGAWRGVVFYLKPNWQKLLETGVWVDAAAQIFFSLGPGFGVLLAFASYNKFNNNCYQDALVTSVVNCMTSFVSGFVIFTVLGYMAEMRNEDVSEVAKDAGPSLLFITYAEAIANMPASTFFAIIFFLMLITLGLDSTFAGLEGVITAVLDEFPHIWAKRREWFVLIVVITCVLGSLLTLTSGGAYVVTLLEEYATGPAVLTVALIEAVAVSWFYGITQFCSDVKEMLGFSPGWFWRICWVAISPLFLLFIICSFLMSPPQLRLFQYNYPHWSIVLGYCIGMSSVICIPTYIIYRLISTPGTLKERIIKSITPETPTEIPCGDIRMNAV
- MEASUREMENT_PROTOCOL: Inhibitory activity against serotonin transporter (SERT) labeled with [3H]-citalopram in rat brain striatal membrane.
- Assay type: cell membranes
Reminder that pIC50 means the negative base-10 logarithm of the concentration expressed in mol/L.

q: Entry under review: `Fc1ccc(C(OCCC2CCN(CC=Cc3ccccc3)CC2)c2ccc(F)cc2)cc1` . Reported pIC50?
a: 6.57

q: Name the recorded pIC50 for `C(=Cc1ccccc1)CN1CCC(CCOC(c2ccccc2)c2ccccc2)CC1` .
a: 6.63

q: Entry `C(=Cc1cccs1)CN1CCC(CCOC(c2ccccc2)c2ccccc2)CC1` has what pIC50?
a: 6.54

q: Given `Fc1ccc(C=CCN2CCC(CCOC(c3ccc(F)cc3)c3ccc(F)cc3)CC2)cc1` , state its recorded pIC50.
a: 7.12

q: Consider the molecule shown here: `Fc1ccc(CCCN2CCC(CCOC(c3ccccc3)c3ccccc3)CC2)cc1` What is its recorded pIC50?
a: 6.65

q: Need pIC50 of Fc1ccc(C(OCCC2CCN(CCCc3ccccc3)CC2)c2cccs2)cc1 (centres undefined) , thanks.
a: 7.07

q: Param item = `c1ccc(C(OCCC2CCN(CCCc3cccnc3)CC2)c2ccccc2)cc1` ; retrieve measured pIC50.
a: 6.71

q: Requested field: pIC50. Item: `Fc1ccc(C=CCN2CCC(CCOC(c3ccccc3)c3ccccc3)CC2)cc1`
a: 6.69

q: Fill blank: measured pIC50 of the molecule c1ccc(CCCN2CCC(CCOC(c3ccccc3)c3cccs3)CC2)cc1 (centres undefined) is ____.
a: 6.74

====

- SYSTEM_UNDER_TEST: Sodium-dependent dopamine transporter (Rattus norvegicus)
- Sequence (P23977 whole entry): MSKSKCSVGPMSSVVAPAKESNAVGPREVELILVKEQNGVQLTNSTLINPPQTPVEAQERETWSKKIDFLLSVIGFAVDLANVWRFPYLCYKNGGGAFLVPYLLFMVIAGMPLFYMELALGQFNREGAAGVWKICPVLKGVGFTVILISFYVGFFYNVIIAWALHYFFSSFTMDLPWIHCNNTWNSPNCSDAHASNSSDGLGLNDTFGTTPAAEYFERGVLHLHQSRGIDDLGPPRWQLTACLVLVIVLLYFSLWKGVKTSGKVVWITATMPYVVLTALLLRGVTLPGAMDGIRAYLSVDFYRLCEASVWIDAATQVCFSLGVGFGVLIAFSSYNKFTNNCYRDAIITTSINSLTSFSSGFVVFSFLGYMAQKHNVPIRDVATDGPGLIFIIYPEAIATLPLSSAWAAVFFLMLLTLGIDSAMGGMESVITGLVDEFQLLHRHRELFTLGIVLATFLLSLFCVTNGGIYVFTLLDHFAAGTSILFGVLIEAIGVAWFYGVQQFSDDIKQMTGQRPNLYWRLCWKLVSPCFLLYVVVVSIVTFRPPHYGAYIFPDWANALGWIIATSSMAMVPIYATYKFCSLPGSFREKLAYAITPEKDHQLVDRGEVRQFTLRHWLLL
- MEASUREMENT_PROTOCOL: Inhibitory activity against dopamine transporter (DAT) labeled with [3H]WIN-35428 in rat brain striatal membrane.
MEASURED_PARAMETER: pIC50
Keep it numeric: pIC50 is minus log10 of the concentration in mol/L.

q: Any idea what its pIC50 is? The compound is `Fc1ccc(CCCN2CCC(CCOC(c3ccccc3)c3ccccc3)CC2)cc1`
a: 8.18

q: # query: pIC50 of entry `C(=Cc1cccs1)CN1CCC(CCOC(c2ccccc2)c2ccccc2)CC1`
a: 8.01

q: What value of pIC50 has been recorded for this entry: c1ccc(CCCN2CCC(CCOC(c3ccccc3)c3cccs3)CC2)cc1 (centres undefined)
a: 8.22

q: Look up pIC50 for this compound: `Fc1ccc(C=CCN2CCC(CCOC(c3ccccc3)c3ccccc3)CC2)cc1`
a: 7.97

q: Need pIC50 of `Fc1ccc(C=CCN2CCC(CCOC(c3ccc(F)cc3)c3ccc(F)cc3)CC2)cc1` , thanks.
a: 7.82

q: // pIC50 lookup, key: `Fc1ccc(C(OCCC2CCN(CC=Cc3ccccc3)CC2)c2ccc(F)cc2)cc1`
a: 7.38

q: What does the data say about its pIC50? Entry: `C(=Cc1ccccc1)CN1CCC(CCOC(c2ccccc2)c2ccccc2)CC1`
a: 8.00

q: Consider the compound `c1ccc(C(OCCC2CCN(CCCc3cccnc3)CC2)c2ccccc2)cc1` and give its measured pIC50.
a: 7.52

q: Given the entry Fc1ccc(C(OCCC2CCN(CCCc3ccccc3)CC2)c2cccs2)cc1 (centres undefined) , report its measured pIC50.
a: 7.93

====

Please provide measured Ratio for the entries that follow.
- Test system: Monoamine transporters; serotonin & dopamine
- MEASUREMENT_PROTOCOL: Ratio between the IC50 values of SERT and DAT
- Assay type: protein assay
Number only, no unit.

q: Reported Ratio for `Fc1ccc(C=CCN2CCC(CCOC(c3ccccc3)c3ccccc3)CC2)cc1` : what is it?
a: 19

q: Which Ratio is reported for this compound? Fc1ccc(C(OCCC2CCN(CCCc3ccccc3)CC2)c2cccs2)cc1 (centres undefined)
a: 7.3

q: Given the entry c1ccc(CCCN2CCC(CCOC(c3ccccc3)c3cccs3)CC2)cc1 (centres undefined) , report its measured Ratio.
a: 30

q: Which Ratio value belongs to `c1ccc(C(OCCC2CCN(CCCc3cccnc3)CC2)c2ccccc2)cc1` ?
a: 6.5
